- System: NCI-H1944
- TEST_DETAILS: relative viability (nuclei count vs DMSO), 5 days (fraction); higher = more cells survive
- STUDY_CONDITIONS: first compound 2 µM

[
  {
    "MOLECULE": "Cc1csc(=NC2CCCCC2)n1/N=C/c1ccc(O)c(O)c1O [MIM1] + CC1(C)CCC(c2ccc(Cl)cc2)=C(CN2CCN(c3ccc(C(=O)NS(=O)(=O)c4ccc(N[C@H](CCN5CCOCC5)CSc5ccccc5)c(S(=O)(=O)C(F)(F)F)c4)cc3)CC2)C1 [Navitoclax] (partner 0.5 µM)",
    "relative viability": 0.845
  },
  {
    "MOLECULE": "Cc1csc(=NC2CCCCC2)n1/N=C/c1ccc(O)c(O)c1O [MIM1] + C[C@]1(O)C[C@@H](c2nc(-c3ccc4ccc(-c5ccccc5)nc4c3)c3c(N)nccn32)C1 [Linsitinib] (partner 1 µM)",
    "relative viability": 0.923
  }
]
